TARGET_OF_ASSAY: Insulin-degrading enzyme (Homo sapiens) (UniProt P14735)
Sequence (P14735 42-1019 limits assumed): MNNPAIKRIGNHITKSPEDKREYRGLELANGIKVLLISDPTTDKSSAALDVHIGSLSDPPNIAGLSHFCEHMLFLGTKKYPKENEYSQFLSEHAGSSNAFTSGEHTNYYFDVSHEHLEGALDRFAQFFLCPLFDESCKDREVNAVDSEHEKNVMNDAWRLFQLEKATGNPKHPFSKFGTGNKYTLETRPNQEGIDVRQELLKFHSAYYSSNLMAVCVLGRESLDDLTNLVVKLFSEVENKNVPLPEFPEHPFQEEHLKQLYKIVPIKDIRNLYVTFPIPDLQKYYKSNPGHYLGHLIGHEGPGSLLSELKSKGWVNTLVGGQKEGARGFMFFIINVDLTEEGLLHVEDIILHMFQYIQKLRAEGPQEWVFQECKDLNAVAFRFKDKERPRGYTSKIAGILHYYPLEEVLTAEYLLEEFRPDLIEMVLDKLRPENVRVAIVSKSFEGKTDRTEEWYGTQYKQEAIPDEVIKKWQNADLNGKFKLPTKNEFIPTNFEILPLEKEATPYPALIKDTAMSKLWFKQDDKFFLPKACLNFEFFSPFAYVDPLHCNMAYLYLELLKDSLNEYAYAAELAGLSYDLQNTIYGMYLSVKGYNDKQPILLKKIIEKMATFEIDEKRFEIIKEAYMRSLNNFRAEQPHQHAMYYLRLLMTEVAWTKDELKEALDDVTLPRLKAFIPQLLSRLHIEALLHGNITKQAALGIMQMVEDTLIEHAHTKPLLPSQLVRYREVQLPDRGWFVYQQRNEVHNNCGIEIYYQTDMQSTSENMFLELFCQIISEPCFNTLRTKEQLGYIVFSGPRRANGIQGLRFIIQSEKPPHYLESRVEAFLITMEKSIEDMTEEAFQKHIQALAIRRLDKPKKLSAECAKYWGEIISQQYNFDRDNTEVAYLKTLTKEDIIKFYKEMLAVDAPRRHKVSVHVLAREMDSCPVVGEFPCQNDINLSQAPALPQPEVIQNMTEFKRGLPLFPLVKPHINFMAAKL
ASSAY_NOTES: exo-site inhibitors of human IDE, primary screen, biochemical, fluorescence anisotropy, probe displacement (AID 1259349);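 also: His-tagged human IDE residues 42-1019 made in E. coli with 30 nM FL-6b probe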
EXPERIMENTAL_CONDITIONS: purified IDE, FL-6b probe fluorescence polarization; at 20 µM; active compounds read low
Hit rate of the full screen: of about 17,000 compounds, about 1,100 (6.5%) were called active. The entries come from a sample that favours actives as a whole.
Form field: z-score (one value per entry).
ASSAY_METRIC: z-score

| SMILES_REPR | ASSAY_METRIC | READOUT_VALUE |
| --- | --- | --- |
| O=C(c1cccnc1)N1CC(=O)N2[C@H](C1)[C@H](c1ccc(-c3ccccc3F)cc1)[C@@H]2CO | z-score | -1.28 |
| O=C(c1cccc(F)c1)N1CCCCN2[C@H](CO)[C@@H](c3ccc(-c4cncnc4)cc3)[C@H]2C1 | z-score | 1.13 |
| CCCC#Cc1ccc([C@H]2[C@H]3CN(C(=O)c4cccnc4)CC(=O)N3[C@H]2CO)cc1 | z-score | 0.452 |
| COc1cccc(-c2ccc([C@@H]3[C@H]4CN(C(=O)c5cccnc5)CC(=O)N4[C@H]3CO)cc2)c1 | z-score | -6.37 |
| O=C(c1cccnc1)N1CC(=O)N2[C@H](CO)[C@@H](c3ccc(-c4ccc(F)cc4)cc3)[C@@H]2C1 | z-score | -1.03 |
| CCCNC(=O)N1[C@@H]2Cn3c(ccc(-c4ccc(OC)cc4)c3=O)[C@H]1[C@@H](C(=O)NC1CCC1)[C@@H]2CO | z-score | -0.305 |
| O=C(c1ccccc1F)N1CC(=O)N2[C@H](CO)[C@@H](c3ccc(-c4cccnc4)cc3)[C@H]2C1 | z-score | -0.211 |
| N#Cc1ccc(-c2ccc([C@H]3[C@H](CO)N4C(=O)CN(C(=O)Cc5ccccc5)C[C@@H]34)cc2)cc1 | z-score | 1.44 |
| CC(=O)NC[C@H]1[C@H](c2ccccc2)[C@@H](CO)N1C(=O)Cc1cccnc1 | z-score | 5.37 |
| Cc1ccccc1-c1ccc([C@H]2[C@@H](CO)N3C(=O)CN(C(=O)c4cccnc4)C[C@@H]23)cc1 | z-score | -8.42 |
| CC(=O)N1CCCCN2[C@H](C1)[C@@H](c1ccc(-c3ccc(F)cc3)cc1)[C@@H]2CO | z-score | 0.352 |
| CC(=O)N1CC2(C1)[C@H](c1ccccc1)[C@@H](CO)N2C(=O)Cc1ccccc1 | z-score | -0.887 |
| O=C(c1cccc(F)c1)N1CCCCN2[C@@H](CO)[C@H](c3ccc(-c4cncnc4)cc3)[C@@H]2C1 | z-score | 1.94 |
| O=C(Cc1ccccn1)N1CC(=O)N2[C@H](C1)[C@@H](c1ccc(-c3ccccc3)cc1)[C@@H]2CO | z-score | -6.31 |
| O=C(c1cccnc1)N1CC(=O)N2[C@H](CO)[C@H](c3ccc(-c4cccnc4)cc3)[C@@H]2C1 | z-score | 1.98 |
| COc1ccc(C#Cc2ccc([C@H]3[C@H]4CN(C(=O)c5cccnc5)CC(=O)N4[C@H]3CO)cc2)cc1 | z-score | -0.5 |
| Cc1ccccc1-c1ccc([C@H]2[C@H](CO)N3C(=O)CN(C(=O)c4cccnc4)C[C@@H]23)cc1 | z-score | -12.4 |
